Biological target: MPO (Homo sapiens, UniProt P05164)
Construct: made in house
Sequence (P05164 49-745): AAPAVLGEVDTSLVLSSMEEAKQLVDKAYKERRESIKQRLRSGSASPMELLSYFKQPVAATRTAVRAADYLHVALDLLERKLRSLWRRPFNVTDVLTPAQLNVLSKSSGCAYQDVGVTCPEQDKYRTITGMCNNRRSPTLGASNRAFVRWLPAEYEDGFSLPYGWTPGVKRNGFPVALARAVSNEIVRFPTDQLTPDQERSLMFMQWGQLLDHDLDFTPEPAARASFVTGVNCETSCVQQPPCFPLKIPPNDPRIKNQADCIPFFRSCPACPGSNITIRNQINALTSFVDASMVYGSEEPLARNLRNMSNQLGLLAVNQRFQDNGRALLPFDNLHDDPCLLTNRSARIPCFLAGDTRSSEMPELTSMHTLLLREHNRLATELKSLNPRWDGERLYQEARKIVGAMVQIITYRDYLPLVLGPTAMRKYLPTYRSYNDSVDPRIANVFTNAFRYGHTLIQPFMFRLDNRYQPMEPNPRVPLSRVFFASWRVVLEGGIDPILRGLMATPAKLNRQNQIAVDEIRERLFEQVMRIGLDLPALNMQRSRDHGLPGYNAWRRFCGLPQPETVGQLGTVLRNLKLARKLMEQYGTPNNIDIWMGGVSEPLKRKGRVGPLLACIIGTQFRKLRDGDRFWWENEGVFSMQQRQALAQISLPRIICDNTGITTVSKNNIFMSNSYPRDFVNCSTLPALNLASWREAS
Assay: Myeloperoxidase inhibition (MPO) assay, taurine chloramine production by the MPO/H2O2/Cl- system
Type: biochemical
Settings: recombinant MPO 40 nM, pH 7.4 phosphate buffer, 37° C., H2O2 100 μM, 5 minutes
pIC50: −log10 of the molar value. Where a name gives a salt, the structure may show the parent alone.
Below is a list of entries, each paired with its recorded pIC50 value.
quantity_measured: pIC50

molecule="NCCCCc1c[nH]c2ccc(F)cc12 [Compound C, oxalate]" assay_system="MPO (Homo sapiens, UniProt P05164)" numeric_readout=7.82
molecule=CN(C)CCc1c[nH]c2ccc(F)cc12 assay_system="MPO (Homo sapiens, UniProt P05164)" numeric_readout=7.05
molecule="NCCCCCCc1c[nH]c2ccc(F)cc12 [Compound L, oxalate]" assay_system="MPO (Homo sapiens, UniProt P05164)" numeric_readout=6.59
molecule="NCCCc1c[nH]c2ccc(F)cc12 [Compound B, 3-(3-Aminopropyl)-5-fluoro-[1H]-indole]" assay_system="MPO (Homo sapiens, UniProt P05164)" numeric_readout=7.30
molecule="NCCCCCc1c[nH]c2ccc(F)cc12 [Compound K, oxalate]" assay_system="MPO (Homo sapiens, UniProt P05164)" numeric_readout=8.10
molecule="NCCc1c[nH]c2ccc(F)cc12 [Compound A, 5-fluorotryptamine, reference compound]" assay_system="MPO (Homo sapiens, UniProt P05164)" numeric_readout=6.70
molecule=CCN(CC)CCc1c[nH]c2ccc(F)cc12 assay_system="MPO (Homo sapiens, UniProt P05164)" numeric_readout=6.80
molecule=CN(C)CCCc1c[nH]c2ccc(F)cc12 assay_system="MPO (Homo sapiens, UniProt P05164)" numeric_readout=6.89
molecule=Fc1ccc2[nH]cc(CCN3CCCC3)c2c1 assay_system="MPO (Homo sapiens, UniProt P05164)" numeric_readout=7.40
